test system: CLL cells; assay: Viability of activated CLL cells from patients, CellTiter-Glo 72 h (IC50, DSS); type: cell-based, human; conditions: Homo sapiens, CLL cell; 3 patient samples; read-out: IC50, highly sensitive CLL samples
endpoint name: IC50

Quick check: IC50 of C[C@@H](Oc1cc(-c2cnn(C3CCNCC3)c2)cnc1N)c1c(Cl)ccc(F)c1Cl ?
< 200 nM

====

tested on: L363-BTZ; assay: Myeloma cell line viability, CCK-8, 24 hr; type: cell-based, human; settings: Homo sapiens; L363-BTZ, 24 hr treatment
endpoint name: IC50 (µM)
Report the figure in µM without appending any unit label.

Observed IC50 on L363-BTZ for C[C@@H](Oc1cc(-c2cnn(C3CCNCC3)c2)cnc1N)c1c(Cl)ccc(F)c1Cl , please.
4.15

Again, but for Cc1cc(Nc2ncc(Cl)c(Nc3ccccc3S(=O)(=O)C(C)C)n2)c(OC(C)C)cc1C1CCNCC1
0.79

And for CCc1cc2c(cc1N1CCC(N3CCOCC3)CC1)C(C)(C)c1[nH]c3cc(C#N)ccc3c1C2=O ?
6.22
